Overview of reported Maximum absorption wavelength (λmax (abs), nm) across a group of compounds:
Experiment: UV-VIS absorption and fluorescence emission spectra
Assay type: physicochemical
Details: 0.1M phosphate buffer (1x PBS for 7d5); ± 1 nm error
State just the number; it will be interpreted in nm.

Tell me the measured Maximum absorption wavelength (λmax (abs), nm) of O=C(NCC(O)C[n+]1cc(CC(O)(C(=O)O)P(=O)(O)O)n2ccccc21)c1ccc(-c2c3ccc(=O)cc-3oc3cc(O)ccc23)c(C(=O)O)c1 (centres unmarked) [Compound 5-FAM-MINPC] , please.
493

Request the reported Maximum absorption wavelength (λmax (abs), nm) associated with O=C(NCC(O)C[n+]1cc(CC(O)(P(=O)(O)O)P(=O)(O)O)n2ccccc21)c1ccc(-c2c3ccc(=O)cc-3oc3cc(O)ccc23)c(C(=O)O)c1 (centres unmarked) [Compound 5-FAM-MIN]
493

So what's the measured Maximum absorption wavelength (λmax (abs), nm) for this one? O=C(NCC(O)C[n+]1cc(CC(O)(C(=O)O)P(=O)(O)O)n2ccccc21)c1ccc(C(=O)O)c(-c2c3ccc(=O)cc-3oc3cc(O)ccc23)c1 (centres unmarked) [Compound 6-FAM-MINPC]
493

Give its Maximum absorption wavelength (λmax (abs), nm) value. Item: O=C(NCC(O)C[n+]1ccn(CC(O)(P(=O)(O)O)P(=O)(O)O)c1)c1ccc(C(=O)O)c(-c2c3ccc(=O)cc-3oc3cc(O)ccc23)c1 (centres unmarked) [Compound 6-FAM-ZOL]
493

For the compound shown here, O=C(NCC(O)C[n+]1cc(CC(O)(P(=O)(O)O)P(=O)(O)O)n2ccccc21)c1ccc(C(=O)O)c(-c2c3ccc(=O)cc-3oc3cc(O)ccc23)c1 (centres unmarked) [Compound 6-FAM-MIN] , give the reported Maximum absorption wavelength (λmax (abs), nm).
493
